Every entry's value here was drawn from ChEMBL document CHEMBL2380298.

- Test system: Staphylococcus aureus
- procedure_text: Antimicrobial activity against methicillin-resistant Staphylococcus aureus clinical isolate 235 by broth dilution method
- Format: functional

- chemical_string: "CCCCCCCCCOc1ccc(CNC(CO)(CO)CO)cc1.Cl"
  target_under_test: "Staphylococcus aureus"
  MIC, µg/mL: 8
- chemical_string: "CCCCCCCCCCCCCCOc1ccc(CNC(CO)(CO)CO)cc1.Cl"
  target_under_test: "Staphylococcus aureus"
  MIC, µg/mL: 4
- chemical_string: "O=C(N[C@H](CO)[C@H](O)c1ccc([N+](=O)[O-])cc1)C(Cl)Cl"
  target_under_test: "Staphylococcus aureus"
  MIC, µg/mL: 64
- chemical_string: "CCCCCCCCCCOc1ccc(CNC(CO)(CO)CO)cc1.Cl"
  target_under_test: "Staphylococcus aureus"
  MIC, µg/mL: 4
- chemical_string: "CCCCCCCCCCCCOc1ccc(CNC(CO)(CO)CO)cc1.Cl"
  target_under_test: "Staphylococcus aureus"
  MIC, µg/mL: 4
- chemical_string: "CCCCCCCCOc1ccc(CNC(CO)(CO)CO)cc1.Cl"
  target_under_test: "Staphylococcus aureus"
  MIC, µg/mL: 16

---

- Test system: Staphylococcus aureus
- procedure_text: Bactericidal activity against methicillin-resistant Staphylococcus aureus clinical isolate 237 after 24 hrs
- Type: functional
- experimental_parameters: isolate 237, 24 h

- molecule: "CCCCCCCCCCOc1ccc(CNC(CO)(CO)CO)cc1.Cl"
  units: "µg/mL"
  MBC: 16
- molecule: "CCCCCCCCCCCCOc1ccc(CNC(CO)(CO)CO)cc1.Cl"
  units: "µg/mL"
  MBC: 4
- molecule: "CCCCCCCCCCCCCCOc1ccc(CNC(CO)(CO)CO)cc1.Cl"
  units: "µg/mL"
  MBC: 4
- molecule: "CCCCCCCCCOc1ccc(CNC(CO)(CO)CO)cc1.Cl"
  units: "µg/mL"
  MBC: 32
- molecule: "CCCCCCCCOc1ccc(CNC(CO)(CO)CO)cc1.Cl"
  units: "µg/mL"
  MBC: 16
- molecule: "O=C(N[C@H](CO)[C@H](O)c1ccc([N+](=O)[O-])cc1)C(Cl)Cl [CHLORAMPHENICOL]"
  units: "µg/mL"
  MBC: 16

---

- Test system: Nakaseomyces glabratus
- procedure_text: Antimicrobial activity against Candida glabrata ATCC 18804 by broth dilution method
- Format: functional

- chemical_string: "CCCCCCCCCCOc1ccc(CNC(CO)(CO)CO)cc1.Cl"
  target_under_test: "Nakaseomyces glabratus"
  MIC: "2 µg/mL"
- chemical_string: "CCCCCCCCCCCCOc1ccc(CNC(CO)(CO)CO)cc1.Cl"
  target_under_test: "Nakaseomyces glabratus"
  MIC: "2 µg/mL"
- chemical_string: "CCCCCCCCCOc1ccc(CNC(CO)(CO)CO)cc1.Cl"
  target_under_test: "Nakaseomyces glabratus"
  MIC: "4 µg/mL"

---

- Test system: Escherichia coli
- procedure_text: Antimicrobial activity against Escherichia coli ATCC 11229 by broth dilution method
- Format: functional
Each record here notes measured -logMIC.

- chemical_string: "CCCCCCCCCOc1ccc(CNC(CO)(CO)CO)cc1.Cl"
  -logMIC: 4.38
- chemical_string: "CCCCCCOc1ccc(CNC(CO)(CO)CO)cc1.Cl"
  -logMIC: 3.13
- chemical_string: "CCCCCCCCCCOc1ccc(CNC(CO)(CO)CO)cc1.Cl"
  -logMIC: 4.1
- chemical_string: "CCCCCCCCOc1ccc(CNC(CO)(CO)CO)cc1.Cl"
  -logMIC: 4.06
- chemical_string: "CCCCOc1ccc(CNC(CO)(CO)CO)cc1.Cl"
  -logMIC: 2.49

---

- System: Candida tropicalis
- procedure_text: Antimicrobial activity against Candida tropicalis ATCC 750 by broth dilution method
- Format: functional

- chemical_string: "CCCCCCCCCOc1ccc(CNC(CO)(CO)CO)cc1.Cl"
  target_under_test: "Candida tropicalis"
  units: "µg/mL"
  MIC: 64
- chemical_string: "CCCCCCCCCCOc1ccc(CNC(CO)(CO)CO)cc1.Cl"
  target_under_test: "Candida tropicalis"
  units: "µg/mL"
  MIC: 8
- chemical_string: "CCCCCCCCCCCCOc1ccc(CNC(CO)(CO)CO)cc1.Cl"
  target_under_test: "Candida tropicalis"
  units: "µg/mL"
  MIC: 8

---

Each record here notes measured MIC.
- Tested on: Nakaseomyces glabratus
- procedure_text: Antimicrobial activity against Candida glabrata ATCC 18804 by broth dilution method
- Format: functional

- molecule: "CCCCOc1ccc(CNC(CO)(CO)CO)cc1.Cl"
  MIC [µg/mL]: 512
- molecule: "CCCCCCOc1ccc(CNC(CO)(CO)CO)cc1.Cl"
  MIC [µg/mL]: 256
- molecule: "CCCCCCCCCCCCCCOc1ccc(CNC(CO)(CO)CO)cc1.Cl"
  MIC [µg/mL]: 8
- molecule: "CCC(C)n1ncn(-c2ccc(N3CCN(c4ccc(OCC5COC(Cn6cncn6)(c6ccc(Cl)cc6Cl)O5)cc4)CC3)cc2)c1=O (stereo not given) [ITRACONAZOLE]"
  MIC [µg/mL]: 256
- molecule: "CCCCCCCCOc1ccc(CNC(CO)(CO)CO)cc1.Cl"
  MIC [µg/mL]: 8

---

- System: Staphylococcus aureus
- procedure_text: Antimicrobial activity against methicillin-resistant Staphylococcus aureus clinical isolate 238 by broth dilution method
- Assay type: functional
reported_metric: MIC (µg/mL)

- chemical_string: "CCCCCCCCCOc1ccc(CNC(CO)(CO)CO)cc1.Cl"
  data_value: 32
- chemical_string: "CCCCCCCCCCCCCCOc1ccc(CNC(CO)(CO)CO)cc1.Cl"
  data_value: 4
- chemical_string: "CCCCCCCCOc1ccc(CNC(CO)(CO)CO)cc1.Cl"
  data_value: 16
- chemical_string: "O=C(N[C@H](CO)[C@H](O)c1ccc([N+](=O)[O-])cc1)C(Cl)Cl"
  data_value: 32
- chemical_string: "CCCCCCCCCCCCOc1ccc(CNC(CO)(CO)CO)cc1.Cl"
  data_value: 4
- chemical_string: "CCCCCCCCCCOc1ccc(CNC(CO)(CO)CO)cc1.Cl"
  data_value: 8

---

- System: Staphylococcus aureus
- procedure_text: Antimicrobial activity against methicillin-resistant Staphylococcus aureus clinical isolate 264 by broth dilution method
- Type: functional
Each record here notes measured MIC.
reported_metric: MIC (µg/mL)

- chemical_string: "CCCCCCCCCCCCOc1ccc(CNC(CO)(CO)CO)cc1.Cl"
  units: "µg/mL"
  data_value: 4
- chemical_string: "CCCCCCCCCCCCCCOc1ccc(CNC(CO)(CO)CO)cc1.Cl"
  units: "µg/mL"
  data_value: 16
- chemical_string: "CCCCCCCCCOc1ccc(CNC(CO)(CO)CO)cc1.Cl"
  units: "µg/mL"
  data_value: 8
- chemical_string: "CCCCCCCCCCOc1ccc(CNC(CO)(CO)CO)cc1.Cl"
  units: "µg/mL"
  data_value: 2
- chemical_string: "CCCCCCCCOc1ccc(CNC(CO)(CO)CO)cc1.Cl"
  units: "µg/mL"
  data_value: 8
- chemical_string: "O=C(N[C@H](CO)[C@H](O)c1ccc([N+](=O)[O-])cc1)C(Cl)Cl"
  units: "µg/mL"
  data_value: 8

---

Each record here notes measured MBC.
- System: Staphylococcus aureus
- procedure_text: Bactericidal activity against methicillin-resistant Staphylococcus aureus clinical isolate 238 after 24 hrs
- Format: functional
- experimental_parameters: isolate 238, 24 h

- chemical_string: "CCCCCCCCOc1ccc(CNC(CO)(CO)CO)cc1.Cl"
  target_under_test: "Staphylococcus aureus"
  units: "µg/mL"
  MBC: 16
- chemical_string: "CCCCCCCCCCCCOc1ccc(CNC(CO)(CO)CO)cc1.Cl"
  target_under_test: "Staphylococcus aureus"
  units: "µg/mL"
  MBC: 4
- chemical_string: "CCCCCCCCCCOc1ccc(CNC(CO)(CO)CO)cc1.Cl"
  target_under_test: "Staphylococcus aureus"
  units: "µg/mL"
  MBC: 8
- chemical_string: "CCCCCCCCCCCCCCOc1ccc(CNC(CO)(CO)CO)cc1.Cl"
  target_under_test: "Staphylococcus aureus"
  units: "µg/mL"
  MBC: 4
- chemical_string: "O=C(N[C@H](CO)[C@H](O)c1ccc([N+](=O)[O-])cc1)C(Cl)Cl"
  target_under_test: "Staphylococcus aureus"
  units: "µg/mL"
  MBC: 16
- chemical_string: "CCCCCCCCCOc1ccc(CNC(CO)(CO)CO)cc1.Cl"
  target_under_test: "Staphylococcus aureus"
  units: "µg/mL"
  MBC: 32

---

Each record here notes measured MIC.
- Tested on: Staphylococcus aureus
- procedure_text: Antimicrobial activity against methicillin-resistant Staphylococcus aureus clinical isolate 225 by broth dilution method
- Format: functional
reported_metric: MIC (mg/L)

- compound: "CCCCCCCCCOc1ccc(CNC(CO)(CO)CO)cc1.Cl"
  units: "mg/L"
  bound_operator: "="
  data_value: 8
- compound: "CCCCCCCCOc1ccc(CNC(CO)(CO)CO)cc1.Cl"
  units: "mg/L"
  bound_operator: "="
  data_value: 128
- compound: "O=C(N[C@H](CO)[C@H](O)c1ccc([N+](=O)[O-])cc1)C(Cl)Cl [CHLORAMPHENICOL]"
  units: "mg/L"
  bound_operator: "="
  data_value: 8
- compound: "CCCCCCCCCCCCOc1ccc(CNC(CO)(CO)CO)cc1.Cl"
  units: "mg/L"
  bound_operator: "="
  data_value: 8
- compound: "CCCCCCCCCCOc1ccc(CNC(CO)(CO)CO)cc1.Cl"
  units: "mg/L"
  bound_operator: "="
  data_value: 8
- compound: "CCCCCCCCCCCCCCOc1ccc(CNC(CO)(CO)CO)cc1.Cl"
  units: "mg/L"
  bound_operator: ">"
  data_value: 1020
